Sourced from patent US20190055322A1

target: PcrV of P. aeruginosa strain PA103 (on TTSS-induced bacteria) (Pseudomonas aeruginosa strain PA103); assay: cell-based or functional assay
VALUE_TYPE: % inhibition in P3X63 cytotoxicity assay, extract 1/150 (%)
Value expressed in %; do not type the unit.

{"columns": ["BINDER", "OBSERVED_VALUE"],
 "data": [
  ["Nanobody 283 (7E09-40GS-6B05) (VHH) EVQLVESGGGLVQAGGSLRLSCAASGRTFSSYIMGWFRQAPGKAREFVADITWGQRPYYADSVKGRFTISRDNAKNTVYLEMNSLKPEDTAVYYCAADLGVVIREEHAYWGQGTLVTVSSGGGGSGGGGSGGGGSGGGGSGGGGSGGGGSGGGGSGGGGSEVQLVESGGGLVQPGGSLRLSCAASGSIFSINTMGWYRQAPGKQRELVSTITSNLVPHYADSVQGRFTISRDNARNTVYLQMNSLKPQDTAHYYCNAWARSSGATPYTNYWGQGTLVTVSS", 45]
]}

Consider the additional binder presented here.
Request: // % inhibition in P3X63 cytotoxicity assay, extract 1/150 lookup, key: Nanobody 258 (13F07-40GS-14E10) (VHH) EVQLVESGGGLVQAGGSLRLSCAASGNTFSTNPMYWYRQAEGKQRELVASISSRGITNYADSVRGRFSISRDNTKDTVYLQMNSLKPEDTAVYYCRLASLSSGTVYWGKGTLVTVSSGGGGSGGGGSGGGGSGGGGSGGGGSGGGGSGGGGSGGGGSEVQLVESGGGLVQPGGSLRLSCAASGRIFSINTMGWYRQAPGKQRELVAGVTINAITNYADSVKGRFTISRDNAKNTVWLQMNSLKPEDTAVYYCHAWARSSGSAPYSQNWGQGTLVTVSS
Result: 69
